Source listed as PubChem BioAssay (EPA / NIEHS).

Assay Summary: ATG_NFI_CIS: Attagene CIS-FACTORIAL HepG2 Assay for human Nuclear Factor I (NFI) (AID 2282989)
Condition Details: HepG2 cis-regulatory reporter, NFI response element transcription; actives raise or lower the signal
Activity calls are given as the source filed them. Rule for the calls: active = hit-call score of the fitted dose curve at least 0.9, where 1 is the maximum; inactive = score below 0.9.
Returns: one label drawn from t = active, f = inactive

[
  {
    "Compound": "c1ccc2c(c1)-c1cccc3c1c-2cc1ccccc13",
    "Label Class": "f"
  },
  {
    "Compound": "C[C@]12C=CC(=O)C=C1CC[C@H]1[C@@H]3C[C@@H](O)[C@](O)(C(=O)CO)[C@@]3(C)C[C@H](O)[C@@]12F",
    "Label Class": "f"
  },
  {
    "Compound": "O=c1[nH]cnc2c1ncn2[C@H]1CC[C@@H](CO)O1",
    "Label Class": "f"
  },
  {
    "Compound": "O=C(NO)C1(NS(=O)(=O)c2ccc(Oc3ccc(F)cc3)cc2)CCOCC1",
    "Label Class": "f"
  }
]

[ask] What classification did `C=CN1CCCC1=O` end up with in this test?
[reply] f

[ask] What classification did CC(C)CC(C)O (configuration not stated) end up with in this test?
[reply] f

[ask] What classification did `COc1cc(C(C)C)c2c(c1)S(=O)(=O)N(COc1cc(=O)n3cccc(OCCN4CCCCC4)c3n1)C2=O` end up with in this test?
[reply] t

====

Assay Summary: CCTE_Simmons_MITO_max_resp_rate: CCTE's HepG2 Seahorse XF Respirometric Screening Assay at Maximal Respiratory State [uncoupled], Simmons Lab (AID 2284002)
Condition Details: actives raise or lower the signal
Active and inactive are the calls of the source. How the source made its calls: active means hit-call score of the fitted dose curve at least 0.9, where 1 is the maximum; inactive means score below 0.9.
Returns: one label drawn from YES for active, NO for inactive

Consider the following illustrative entries.
[
  {
    "Molecule": "CCc1ccc(O)c(C(C)(C)C)c1",
    "Label Class": "NO"
  },
  {
    "Molecule": "CCN(CC)C(=S)SSC(=S)N(CC)CC",
    "Label Class": "NO"
  },
  {
    "Molecule": "O=C(NO)C1(NS(=O)(=O)c2ccc(Oc3ccc(F)cc3)cc2)CCOCC1",
    "Label Class": "YES"
  },
  {
    "Molecule": "O=C1CN(N=Cc2ccc([N+](=O)[O-])o2)C(=O)N1",
    "Label Class": "YES"
  },
  {
    "Molecule": "NC(=O)NN=Cc1ccc([N+](=O)[O-])o1",
    "Label Class": "NO"
  },
  {
    "Molecule": "CC(C)c1nnc2ccc(-c3ocnc3-c3cc(F)ccc3F)cn12",
    "Label Class": "YES"
  },
  {
    "Molecule": "CCOc1ccc2[nH]cc(C(=O)NCc3ccccc3)c(=O)c2n1",
    "Label Class": "NO"
  }
]

Now consider the entry below.
[ask] What classification did CCCCCCCC1CCC(=O)O1 (stereo not drawn) end up with in this test?
[reply] NO

====

Assay Summary: ATG_TAL_CIS: Attagene CIS-FACTORIAL HepG2 Assay for human TAL Basal Promoter (AID 2282966);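 note: background control endpoint measuring basal TAL promoter reporter mRNA not a specific factor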
Condition Details: HepG2 Attagene cis-factorial TAL promoter reporter; actives raise or lower the signal
The source made the active and inactive calls. Rule for the calls: active = hit-call score of the fitted dose curve at least 0.9, where 1 is the maximum; inactive = score below 0.9.
Assay Endpoint: outcome

[
  {
    "Molecule": "FC(F)C(F)(F)COCC1CO1 (stereo not drawn)",
    "Endpoint Result": "inactive"
  },
  {
    "Molecule": "Cn1c(=O)c2[nH]cnc2n(C)c1=O",
    "Endpoint Result": "inactive"
  },
  {
    "Molecule": "Cc1nc(-c2ccccn2)ncc1C(=O)Nn1cc(C)c2cc(F)ccc21",
    "Endpoint Result": "inactive"
  }
]

====

Assay System: human Phosphodiesterase 10 (PDE10), PDE10A (gene 10846) (UniProt Q9Y233)
Sequence (Q9Y233 whole entry, looked up): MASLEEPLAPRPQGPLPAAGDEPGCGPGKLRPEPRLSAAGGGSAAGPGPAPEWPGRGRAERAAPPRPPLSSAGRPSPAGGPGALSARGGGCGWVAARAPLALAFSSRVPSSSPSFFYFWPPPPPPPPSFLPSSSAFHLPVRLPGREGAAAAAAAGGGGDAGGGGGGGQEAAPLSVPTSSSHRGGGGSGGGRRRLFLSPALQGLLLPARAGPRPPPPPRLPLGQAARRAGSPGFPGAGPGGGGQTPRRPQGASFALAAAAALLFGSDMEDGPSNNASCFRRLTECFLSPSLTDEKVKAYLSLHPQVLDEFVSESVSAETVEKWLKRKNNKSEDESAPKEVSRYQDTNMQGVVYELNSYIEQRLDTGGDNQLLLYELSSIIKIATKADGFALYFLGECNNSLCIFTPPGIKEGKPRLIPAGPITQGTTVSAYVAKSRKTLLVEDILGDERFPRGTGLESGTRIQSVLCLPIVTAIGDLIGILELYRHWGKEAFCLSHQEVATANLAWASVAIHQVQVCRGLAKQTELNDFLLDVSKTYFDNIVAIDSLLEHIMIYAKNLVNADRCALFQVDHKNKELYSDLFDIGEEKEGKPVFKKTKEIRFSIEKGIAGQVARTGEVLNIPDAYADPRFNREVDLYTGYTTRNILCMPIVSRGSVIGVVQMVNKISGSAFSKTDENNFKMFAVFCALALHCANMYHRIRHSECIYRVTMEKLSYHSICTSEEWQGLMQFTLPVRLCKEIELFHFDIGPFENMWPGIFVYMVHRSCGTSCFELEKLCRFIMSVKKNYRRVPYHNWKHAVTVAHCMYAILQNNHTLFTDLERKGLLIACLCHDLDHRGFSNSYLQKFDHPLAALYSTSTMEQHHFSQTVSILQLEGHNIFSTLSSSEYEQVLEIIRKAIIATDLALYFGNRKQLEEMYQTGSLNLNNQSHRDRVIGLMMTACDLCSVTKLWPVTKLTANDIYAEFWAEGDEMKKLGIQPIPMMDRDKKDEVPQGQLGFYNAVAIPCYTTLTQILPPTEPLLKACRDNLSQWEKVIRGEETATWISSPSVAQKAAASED
Assay Summary: NVS_ENZ_hPDE10: NovaScreen (NVS) Enzymatic Assay for human Phosphodiesterase 10 (PDE10) (AID 2283195)
Inconclusive results are not listed. The source made the active and inactive calls. Rule for the calls: active = hit-call score of the fitted dose curve at least 0.9, where 1 is the maximum; inconclusive = response in the unintended direction; inactive = score below 0.9.
Returns: one label drawn from active, inactive

[
  {
    "Molecule Smiles": "Cn1c(=O)c2[nH]cnc2n(C)c1=O",
    "Assay System": "human Phosphodiesterase 10 (PDE10), PDE10A (gene 10846) (UniProt Q9Y233)",
    "Label Class": "active"
  },
  {
    "Molecule Smiles": "CCCCCCCCCCCCCCCCOS(=O)(=O)O",
    "Assay System": "human Phosphodiesterase 10 (PDE10), PDE10A (gene 10846) (UniProt Q9Y233)",
    "Label Class": "active"
  },
  {
    "Molecule Smiles": "CC(C)c1nnc2ccc(-c3ocnc3-c3cc(F)ccc3F)cn12",
    "Assay System": "human Phosphodiesterase 10 (PDE10), PDE10A (gene 10846) (UniProt Q9Y233)",
    "Label Class": "active"
  },
  {
    "Molecule Smiles": "S=P(N1CC1)(N1CC1)N1CC1",
    "Assay System": "human Phosphodiesterase 10 (PDE10), PDE10A (gene 10846) (UniProt Q9Y233)",
    "Label Class": "inactive"
  }
]

Now consider the entry below.
[ask] What classification did `OCc1c[nH]c2ccccc12` end up with in this test?
[reply] active

====

Read-out: Glutamate-cysteine ligase catalytic (GCLC), GCLC (gene 2729)
Assay Summary: LTEA_HepaRG_GCLC: Life Technologies and Expression Analysis (LTEA) Assay for Glutamate-cysteine ligase catalytic (GCLC) using HepaRG (AID 2283498)
Condition Details: mRNA level, 48 h; actives raise or lower the signal
Calls of active or inactive are those of the source. The calls were made as follows: active = hit-call score of the fitted dose curve at least 0.9, where 1 is the maximum; inactive = score below 0.9.
Returns: one label drawn from TRUE (active), FALSE (inactive)

Consider the following illustrative entries.
[
  {
    "Compound": "CCc1ccc(O)c(C(C)(C)C)c1",
    "Label Class": "FALSE"
  },
  {
    "Compound": "c1ccc2c(c1)-c1cccc3c1c-2cc1ccccc13",
    "Label Class": "FALSE"
  },
  {
    "Compound": "CCCCCCCCN(C)C",
    "Label Class": "FALSE"
  },
  {
    "Compound": "C=CCc1cc(S(=O)(=O)c2ccc(O)c(CC=C)c2)ccc1O",
    "Label Class": "TRUE"
  },
  {
    "Compound": "CC[C@H](C)C(=O)O[C@H]1C[C@H](O)C=C2C=C[C@H](C)[C@H](CC[C@@H](O)C[C@@H](O)CC(=O)O)[C@H]21",
    "Label Class": "FALSE"
  }
]

[ask] What classification did `CCCCCCCCCC` end up with in this test?
[reply] FALSE

[ask] What classification did `CCN(CC)C(=S)SSC(=S)N(CC)CC` end up with in this test?
[reply] FALSE

[ask] What classification did `Cc1nc(-c2ccccn2)ncc1C(=O)Nn1cc(C)c2cc(F)ccc21` end up with in this test?
[reply] FALSE

====

Read-out: succinate dehydrogenase complex iron sulfur subunit B (SDHB), SDHB (gene 6390)
Assay Summary: LTEA_HepaRG_SDHB: Life Technologies and Expression Analysis (LTEA) Assay for succinate dehydrogenase complex iron sulfur subunit B (SDHB) using HepaRG (AID 2283528)
Condition Details: mRNA level, 48 h; actives raise or lower the signal
Activity calls are given as the source filed them. How the source made its calls: active means hit-call score of the fitted dose curve at least 0.9, where 1 is the maximum; inactive means score below 0.9.
Returns: one label drawn from label 1 for active, label 0 for inactive

[
  {
    "Molecule Smiles": "O=C(O)[C@H](O)[C@@H](O)C(=O)O",
    "Label Class": "label 0"
  },
  {
    "Molecule Smiles": "Cn1cc[nH]c1=S",
    "Label Class": "label 0"
  }
]

[ask] What classification did `CCCCCCCC/C=C\CCCCCCCC(=O)OC[C@@H](O)[C@H]1OC[C@H](O)[C@H]1O` end up with in this test?
[reply] label 0

[ask] What classification did `NNC(=O)c1ccncc1` end up with in this test?
[reply] label 0

[ask] What classification did `OC[C@H]1O[C@@H]2O[C@H]3[C@H](O)[C@@H](O)[C@@H](O[C@H]4[C@H](O)[C@@H](O)[C@@H](O[C@H]5[C@H](O)[C@@H](O)[C@@H](O[C@H]6[C@H](O)[C@@H](O)[C@@H](O[C@H]7[C@H](O)[C@@H](O)[C@@H](O[C@H]1[C@H](O)[C@H]2O)O[C@@H]7CO)O[C@@H]6CO)O[C@@H]5CO)O[C@@H]4CO)O[C@@H]3CO` end up with in this test?
[reply] label 0

[ask] What classification did `CC(C)C(=O)Nc1ccc([N+](=O)[O-])c(C(F)(F)F)c1` end up with in this test?
[reply] label 0

[ask] What classification did `C[C@@H](Oc1ccc(CNC(=O)c2cccnc2Oc2ccc3c(c2)OCO3)c(F)c1)C(=O)O` end up with in this test?
[reply] label 0

[ask] What classification did `c1ccc2c(c1)-c1cccc3c1c-2cc1ccccc13` end up with in this test?
[reply] label 1
